Source of measurements: patent US20230042936A1

target.system: CDK2/CycE1 (Homo sapiens, UniProt P24941)
experiment.summary: Kinase profiling
Assay type: biochemical
cond: 10 semi-logarithmic dilutions from 50 μM, singlicate
Sorting guide: entries reporting IC50 beneath 0.1 µM go in the 1 pile, the rest go in the -1 pile.

Enquiry: Determine whether this compound shows IC50 lower than 0.1 µM (ties excluded): O=c1ccc2cnc(Nc3ccc(N4CCC(CCCO)CC4)c(F)c3)nc2n1[C@@H]1CC2CCC1C2 (stereo partly shown)
Return: -1

Enquiry: Determine whether this compound shows IC50 lower than 0.1 µM (ties excluded): CC(=O)c1c(C)c2cnc(Nc3ccc(N4CCNCC4)cc3)nc2n([C@@H]2CC3CCC2C3)c1=O (stereo partly shown)
Return: -1

Enquiry: Determine whether this compound shows IC50 lower than 0.1 µM (ties excluded): O=c1ccc2cnc(Nc3ccc(N4CCC(CCCO)CC4)cc3F)nc2n1[C@@H]1CC2CCC1C2 (stereo partly shown)
Return: -1

Enquiry: Determine whether this compound shows IC50 lower than 0.1 µM (ties excluded): CC(O)COC1CCN(c2ccc(Nc3ncc4ccc(=O)n([C@@H]5CC6CCC5C6)c4n3)cc2)CC1 (stereo partly shown)
Return: -1

Enquiry: Determine whether this compound shows IC50 lower than 0.1 µM (ties excluded): CC(O)CCN1CCN(c2ccc(Nc3ncc4ccc(=O)n([C@@H]5CC6CCC5C6)c4n3)cc2)CC1 (stereo partly shown)
Return: 1

Enquiry: Determine whether this compound shows IC50 lower than 0.1 µM (ties excluded): CC(=O)c1c(C)c2cnc(Nc3ccc(N4CCC(CCCO)CC4)cc3)nc2n(C2CCCC2)c1=O
Return: -1

Enquiry: Determine whether this compound shows IC50 lower than 0.1 µM (ties excluded): CC(O)CCC1CCN(c2ccc(Nc3ncc4ccc(=O)n([C@@H]5CC6CCC5C6)c4n3)cc2)CC1 (stereo partly shown)
Return: -1

Enquiry: Determine whether this compound shows IC50 lower than 0.1 µM (ties excluded): CC(=O)c1c(C)c2cnc(Nc3ccc(N4CCC(CCCO)CC4)cc3)nc2n([C@@H]2CC3CCC2C3)c1=O (stereo partly shown)
Return: -1

Enquiry: Determine whether this compound shows IC50 lower than 0.1 µM (ties excluded): O=c1ccc2cnc(Nc3ccc(N4CCC(OCC5(CO)COC5)CC4)cc3)nc2n1[C@@H]1CC2CCC1C2 (stereo partly shown)
Return: 1

Enquiry: Determine whether this compound shows IC50 lower than 0.1 µM (ties excluded): O=c1ccc2cnc(Nc3ccc(N4CCNCC4)cc3)nc2n1[C@@H]1CC2CCC1C2 (stereo partly shown)
Return: 1

* * *

What IC50 was measured for each of the following?
target.system: CDK3/CycC (Homo sapiens)
Sequence (Q00526 whole entry): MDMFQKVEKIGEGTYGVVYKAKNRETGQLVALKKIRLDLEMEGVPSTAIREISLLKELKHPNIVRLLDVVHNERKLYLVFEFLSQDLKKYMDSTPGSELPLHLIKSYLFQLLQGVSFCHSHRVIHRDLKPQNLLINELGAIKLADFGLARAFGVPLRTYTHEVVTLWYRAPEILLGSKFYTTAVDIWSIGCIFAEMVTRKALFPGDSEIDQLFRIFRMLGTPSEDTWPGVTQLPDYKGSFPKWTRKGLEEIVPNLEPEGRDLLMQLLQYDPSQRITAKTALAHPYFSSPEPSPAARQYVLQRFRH
Sequence (P24863 whole entry partner): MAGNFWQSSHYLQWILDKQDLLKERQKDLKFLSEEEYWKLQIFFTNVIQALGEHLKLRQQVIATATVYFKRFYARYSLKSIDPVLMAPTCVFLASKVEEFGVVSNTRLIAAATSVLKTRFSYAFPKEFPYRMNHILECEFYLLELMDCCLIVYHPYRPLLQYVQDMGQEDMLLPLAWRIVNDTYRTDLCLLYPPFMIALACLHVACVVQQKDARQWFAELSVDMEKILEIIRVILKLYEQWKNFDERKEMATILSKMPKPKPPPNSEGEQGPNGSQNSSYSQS
experiment.summary: Kinase profiling
cond: 10 semi-logarithmic dilutions from 50 μM, singlicate
Express the result in µM but write the number alone.

Please fill in: IC50 reported for O=c1ccc2cnc(Nc3ccc(N4CCC(CCCO)CC4)c(F)c3)nc2n1[C@@H]1CC2CCC1C2 (stereo partly shown) [PS003] = 3.95

Please fill in: IC50 reported for O=c1ccc2cnc(Nc3ccc(N4CCC(CCCO)CC4)cc3)nc2n1C1CC2CCC1C2 (stereo not shown) [PD-0183812, reference compound] = 5.21

Please fill in: IC50 reported for CC(O)CCC1CCN(c2ccc(Nc3ncc4ccc(=O)n([C@@H]5CC6CCC5C6)c4n3)cc2)CC1 (stereo partly shown) [PS004] = 2.1

Please fill in: IC50 reported for CC(=O)c1c(C)c2cnc(Nc3ccc(N4CCC(CCCO)CC4)cc3)nc2n([C@@H]2CC3CCC2C3)c1=O (stereo partly shown) [PS008] = 1.86

* * *

target.system: CDK5/p35NCK (Homo sapiens, UniProt Q00535)
Sequence (Q00535 whole entry): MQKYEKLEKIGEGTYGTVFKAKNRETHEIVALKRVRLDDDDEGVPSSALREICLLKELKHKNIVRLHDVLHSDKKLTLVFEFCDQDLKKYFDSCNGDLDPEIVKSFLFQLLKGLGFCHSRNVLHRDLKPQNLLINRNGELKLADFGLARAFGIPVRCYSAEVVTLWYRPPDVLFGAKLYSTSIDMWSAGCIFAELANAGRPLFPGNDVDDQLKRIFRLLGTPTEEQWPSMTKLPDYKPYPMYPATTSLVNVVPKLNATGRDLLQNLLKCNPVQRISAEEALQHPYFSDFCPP
Sequence (Q15078 whole entry partner): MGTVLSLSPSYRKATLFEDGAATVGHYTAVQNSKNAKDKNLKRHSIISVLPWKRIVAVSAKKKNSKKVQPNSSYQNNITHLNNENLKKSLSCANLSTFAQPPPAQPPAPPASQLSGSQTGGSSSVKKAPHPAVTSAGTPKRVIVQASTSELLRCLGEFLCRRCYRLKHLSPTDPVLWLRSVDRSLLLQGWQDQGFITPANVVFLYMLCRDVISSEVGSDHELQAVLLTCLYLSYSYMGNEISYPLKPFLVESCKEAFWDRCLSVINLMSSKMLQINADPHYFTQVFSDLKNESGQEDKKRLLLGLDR
experiment.summary: Kinase profiling
Type: biochemical
cond: 10 semi-logarithmic dilutions from 50 μM, singlicate
observation.type: IC50 (nM)
Express the result in nM but write the number alone.

Please fill in: IC50 reported for O=c1ccc2cnc(Nc3ccc(N4CCC(CCCO)CC4)c(F)c3)nc2n1[C@@H]1CC2CCC1C2 (stereo partly shown) [PS003] = 1920

Please fill in: IC50 reported for CN(C)C(=O)c1cc2cnc(Nc3ccc(N4CCNCC4)cn3)nc2n1C1CCCC1 [Ribociclib, reference compound] = 641

Please fill in: IC50 reported for O=c1ccc2cnc(Nc3ccc(N4CCNCC4)cc3)nc2n1[C@@H]1CC2CCC1C2 (stereo partly shown) [PS007] = 15.9

Please fill in: IC50 reported for CC(O)CCN1CCN(c2ccc(Nc3ncc4ccc(=O)n([C@@H]5CC6CCC5C6)c4n3)cc2)CC1 (stereo partly shown) [PS005] = 34.7

Please fill in: IC50 reported for CC(=O)c1c(C)c2cnc(Nc3ccc(N4CCC(CCCO)CC4)cc3)nc2n(C2CCCC2)c1=O [PS009] = 1860

Please fill in: IC50 reported for CC(O)COC1CCN(c2ccc(Nc3ncc4ccc(=O)n([C@@H]5CC6CCC5C6)c4n3)cc2)CC1 (stereo partly shown) [PS006] = 771

Please fill in: IC50 reported for O=c1ccc2cnc(Nc3ccc(N4CCC(CCCO)CC4)cc3F)nc2n1[C@@H]1CC2CCC1C2 (stereo partly shown) [PS002] = 38600

* * *

target.system: CDK3/CycE1 (Homo sapiens)
Sequence (Q00526 whole entry): as the sequence (Q00526 whole entry) above
Sequence (P24864 whole entry partner): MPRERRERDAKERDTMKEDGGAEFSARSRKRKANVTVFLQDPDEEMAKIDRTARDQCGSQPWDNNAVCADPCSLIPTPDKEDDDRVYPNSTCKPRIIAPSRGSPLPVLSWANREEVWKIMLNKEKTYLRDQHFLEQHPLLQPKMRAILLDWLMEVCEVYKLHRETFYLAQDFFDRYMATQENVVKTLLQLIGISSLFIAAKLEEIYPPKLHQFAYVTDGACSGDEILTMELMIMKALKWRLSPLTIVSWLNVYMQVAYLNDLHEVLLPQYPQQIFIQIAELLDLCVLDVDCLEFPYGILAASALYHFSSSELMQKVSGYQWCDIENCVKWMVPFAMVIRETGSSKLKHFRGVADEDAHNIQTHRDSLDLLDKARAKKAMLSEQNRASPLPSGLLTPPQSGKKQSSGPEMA
experiment.summary: Kinase profiling
cond: 10 semi-logarithmic dilutions from 50 μM, singlicate
observation.type: pIC50
Keep in mind that pIC50 stands for -log10 of concentration in molar terms.

Please fill in: pIC50 reported for CC(O)CCN1CCN(c2ccc(Nc3ncc4ccc(=O)n([C@@H]5CC6CCC5C6)c4n3)cc2)CC1 (stereo partly shown) = 7.57

Please fill in: pIC50 reported for CC(=O)c1c(C)c2cnc(Nc3ccc(N4CCC(CCCO)CC4)cc3)nc2n([C@@H]2CC3CCC2C3)c1=O (stereo partly shown) = 4.59

Please fill in: pIC50 reported for O=c1ccc2cnc(Nc3ccc(N4CCNCC4)cc3)nc2n1[C@@H]1CC2CCC1C2 (stereo partly shown) = 7.92

Please fill in: pIC50 reported for O=c1ccc2cnc(Nc3ccc(N4CCC(CCCO)CC4)cc3)nc2n1C1CC2CCC1C2 (stereo not shown) [PD-0183812, reference compound] = 6.05

Please fill in: pIC50 reported for CC(=O)c1c(C)c2cnc(Nc3ccc(N4CCC(CCCO)CC4)cc3)nc2n(C2CCCC2)c1=O = 4.77

Please fill in: pIC50 reported for CN(C)C(=O)c1cc2cnc(Nc3ccc(N4CCNCC4)cn3)nc2n1C1CCCC1 [Ribociclib, reference compound] = 5.78

* * *

What Papp was measured for each of the following?
experiment.summary: Permeability Caco-2 cells
Type: in vitro ADME
cond: human, Caco-2
Express the result in ×10⁻⁶ cm/s but write the number alone.

Please fill in: Papp reported for CC(=O)c1c(C)c2cnc(Nc3ccc(N4CCNCC4)cn3)nc2n(C2CCCC2)c1=O [Palbociclib, reference compound] = 0.4

Please fill in: Papp reported for CC(O)COC1CCN(c2ccc(Nc3ncc4ccc(=O)n([C@@H]5CC6CCC5C6)c4n3)cc2)CC1 (stereo partly shown) [PS006] = 4.62

* * *

target.system: CDK5/p35NCK (Homo sapiens, UniProt Q00535)
experiment.summary: Kinase profiling
Format: biochemical
observation.type: pIC50
Keep in mind that pIC50 stands for -log10 of concentration in molar terms.

Please fill in: pIC50 reported for O=c1ccc2cnc(Nc3ccc(N4CCC(CCCO)CC4)cc3)nc2n1C1CC2CCC1C2 (stereo not shown) [PD-0183812, reference compound] = 5.73

* * *

experiment.summary: Metabolic stability in hepatocytes
Type: in vitro ADME
cond: mouse, 60-90 min test, read-out: Metabolic stability, Mouse heptocytes: t1/2
What half-life was measured for each of the following?
Express the result in min but write the number alone.

Please fill in: half-life reported for CC(=O)c1c(C)c2cnc(Nc3ccc(N4CCNCC4)cn3)nc2n(C2CCCC2)c1=O [Palbociclib, reference compound] = 96.5

Please fill in: half-life reported for CC(=O)c1c(C)c2cnc(Nc3ccc(N4CCC(CCCO)CC4)cc3)nc2n(C2CCCC2)c1=O = 20.4

Please fill in: half-life reported for CC(O)CCC1CCN(c2ccc(Nc3ncc4ccc(=O)n([C@@H]5CC6CCC5C6)c4n3)cc2)CC1 (stereo partly shown) = 143

Please fill in: half-life reported for CC(O)COC1CCN(c2ccc(Nc3ncc4ccc(=O)n([C@@H]5CC6CCC5C6)c4n3)cc2)CC1 (stereo partly shown) = 18.3

* * *

What IC50 was measured for each of the following?
target.system: CDK9/CycT1 (Homo sapiens, UniProt P50750)
Sequence (P50750 whole entry): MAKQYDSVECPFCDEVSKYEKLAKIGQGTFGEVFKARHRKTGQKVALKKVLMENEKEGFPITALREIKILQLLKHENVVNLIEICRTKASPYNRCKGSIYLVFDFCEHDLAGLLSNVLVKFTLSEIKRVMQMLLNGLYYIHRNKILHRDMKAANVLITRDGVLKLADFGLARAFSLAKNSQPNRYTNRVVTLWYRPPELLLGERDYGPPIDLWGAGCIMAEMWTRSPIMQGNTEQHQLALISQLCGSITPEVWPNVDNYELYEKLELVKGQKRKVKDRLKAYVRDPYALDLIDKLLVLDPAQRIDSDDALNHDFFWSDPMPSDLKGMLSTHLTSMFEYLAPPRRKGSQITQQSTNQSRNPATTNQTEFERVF
Sequence (O60563 whole entry partner): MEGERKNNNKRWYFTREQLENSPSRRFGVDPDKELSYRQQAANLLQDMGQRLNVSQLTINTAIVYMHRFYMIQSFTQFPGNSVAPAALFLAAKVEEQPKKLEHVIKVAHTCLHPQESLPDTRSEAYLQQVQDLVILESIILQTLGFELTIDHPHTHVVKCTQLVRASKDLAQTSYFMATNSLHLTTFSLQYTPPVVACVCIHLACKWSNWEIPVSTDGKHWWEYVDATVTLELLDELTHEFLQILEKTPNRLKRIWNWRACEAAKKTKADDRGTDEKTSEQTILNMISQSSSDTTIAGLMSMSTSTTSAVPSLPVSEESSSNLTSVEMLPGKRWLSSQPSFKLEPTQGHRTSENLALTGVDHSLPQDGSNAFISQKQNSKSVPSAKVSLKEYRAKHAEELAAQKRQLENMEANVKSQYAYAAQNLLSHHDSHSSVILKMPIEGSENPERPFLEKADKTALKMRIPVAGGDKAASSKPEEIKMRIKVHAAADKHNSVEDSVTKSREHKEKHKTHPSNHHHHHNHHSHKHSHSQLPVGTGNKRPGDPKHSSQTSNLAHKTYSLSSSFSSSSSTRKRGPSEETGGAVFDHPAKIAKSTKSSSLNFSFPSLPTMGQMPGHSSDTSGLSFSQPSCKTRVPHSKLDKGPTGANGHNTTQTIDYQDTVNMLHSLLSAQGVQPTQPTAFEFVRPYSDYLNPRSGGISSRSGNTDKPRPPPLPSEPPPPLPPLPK
experiment.summary: Kinase profiling
cond: 10 semi-logarithmic dilutions from 50 μM, singlicate
Express the result in µM but write the number alone.

Reported IC50 (CDK9/CycT1 (Homo sapiens, UniProt P50750)) for entry O=c1ccc2cnc(Nc3ccc(N4CCC(OCC5(CO)COC5)CC4)cc3)nc2n1[C@@H]1CC2CCC1C2 (stereo partly drawn) is 0.0925

Reported IC50 (CDK9/CycT1 (Homo sapiens, UniProt P50750)) for entry CC(O)CCN1CCN(c2ccc(Nc3ncc4ccc(=O)n([C@@H]5CC6CCC5C6)c4n3)cc2)CC1 (stereo partly drawn) is 0.0214

Reported IC50 (CDK9/CycT1 (Homo sapiens, UniProt P50750)) for entry CC(O)CCC1CCN(c2ccc(Nc3ncc4ccc(=O)n([C@@H]5CC6CCC5C6)c4n3)cc2)CC1 (stereo partly drawn) is 0.264
